Entry source: patent US20190071480A1

Target: T1, extracellular domain of activin receptor type IIB (ActRIIBecd), biotinylated (Homo sapiens (Human), UniProt Q13705 27-117, amino-biotinylated with amine-PEG3-Biotin)
T1 construct: immobilised on a streptavidin-coated sensor chip; also called biotinylated ActRIIBecd; extracellular domain of ActRIIB
T1 sequence: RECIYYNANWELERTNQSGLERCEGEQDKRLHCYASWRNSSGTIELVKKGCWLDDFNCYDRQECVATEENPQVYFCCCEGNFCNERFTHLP
Assay: Mean KD column of Table 5; method not restated (BIAcore as Example 5); species also listed in Table 4
pKd: −log10 of the molar value. Bridges are numbered along the chain shown (N, C = ends).
Measured Property: pKd

binder="SEQ ID NO: 292, cysteine pairs C15-C15^b, C79-C114^a, C80-C112^a, C44-C48^a (designed binder, disulfides C15-C15 (inter), C79-C114 (intra), C80-C112 (intra), C44-C48 (intra), homodimer by intermolecular disulfide) GQAKRKGYKRLKSSCKRHPLYVDFKDVGWNDHAVAPPGYHAFYCHGECPFPLADHLNSDNHAIVQTKVNSVNSKDPKACCVPTELSAPSPLYLDENEKPVLKNYQDMVVHGCGCR" measured_property=pKd reported_value=8.24
binder="SEQ ID NO: 248, cysteine pairs C41-C43^a (designed binder, disulfides C41-C43 (intra)) NSKDPKACCVPTELSAPSPLYLDENEKPVLKNYQDMVVHGCGCRVDFKDVGWNDHAVAPPGYHAFYCHGECPFPLADHLNSDNHAIVQTKVNSV" measured_property=pKd reported_value=7.32
binder="SEQ ID NO: 242, cysteine pairs C29-C30^a (designed binder, disulfide 29-30) GQAKRKGYKRLKSSCKRHPLYNSKDPKACCVPTELSAPSPLYLDENEKPVLKNYQDMVVHGCGCR" measured_property=pKd reported_value=7.31
binder="SEQ ID NO: 212, cysteine pairs C41-C59^a (designed binder, disulfide 41-59) NSKIPKACCVPTELSAISMLYLDENEKVVLKNYQDMVVEGCGCRAQAKHKQRKRLKSSCKRHPLY" measured_property=pKd reported_value=7.35
binder="SEQ ID NO: 276, cysteine pairs C67-C71^a, C8-C43^b, C9-C41^b, C109-C109^b (designed binder, disulfides C67-C71 (intra), C8-C43 (inter), C9-C41 (inter), C109-C109 (inter), homodimer by intermolecular disulfide) NSKIPKACCVPTELSAISMLYLDENEKVVLKNYQDMVVEGCGCRVDFSDVGWNDWIVAPPGYHAFYCHGECPFPLADHLNSTNHAIVQTLVNSVAQAKHKQRKRLKSSCKRHPLY" measured_property=pKd reported_value=8.20
binder="SEQ ID NO: 300, cysteine pairs C23-C79^a (designed binder, disulfides C23-C79 (intra)) VDFKDVGWNDHAVAPPGYHAFYCHGECPFPLADHLNSDNHAIVQTKVNSVGQAKRKGYKRLKSSCKRHPLYNSKDPKACCVPTELSAPSPLYLDENEKPVLKNYQDMVVHGCGCR" measured_property=pKd reported_value=7.49
